Test system: MS2 coat protein
assay_text: apparent KD of MS2 coat protein; designed switch direction (-1 OFF switch, 1 ON switch): 1; higher = weaker reporter binding
details: input ligand: microRNA oligo, concentration not stated
outcome_measure: apparent KD of MS2 coat protein

Here is how some sequences turned out for apparent KD of MS2 coat protein.
GAGUAGUUAAAAGGAUAUUGAUUAUUGUAGGAUCAAGAAGGUUUUAACAUGAGGAUCACCCAUGUAGGACUAUAAAUGUGAAAA [Parity 93 - Jieux - Same State NG 1] (Eterna round: R96, puzzle: Same State NG 1) = 12.5 nM
AGUAGUGUAACAUGAGGAUCACCCAUGUAAGUAGAUGUAACCUAGGAUAUGGAUGAUAUGUUAGUCCAGAAGGAGGAUUGAAUA [JR_SSNG3_Sub037] (Eterna round: R96, puzzle: Same State NG 3) = 20.6 nM
UGUUGUAUUACAGGAUAUCUAUUGUUUUCAUUUAGAGAAGGGUAUUCACAUGAGGAUCACCCAUGUAUAUACGAGGAAGUUGUG [JMF's solution 78] (Eterna round: R96, puzzle: Same State NG 1) = 33.1 nM

input: Param item = UUGCGGAAUUAAGGAUAUUGAGUACAUAUGUUUAACAUGAGGAUCACCCAUGUGGGUUGCGGUAUCGAGAAGGUAACUUACUAC [salish99_SSNG2_r04_803] (Eterna round: R96, puzzle: Same State NG 2) ; retrieve measured apparent KD of MS2 coat protein.
output: 80.5 nM

input: Bench note: what apparent KD of MS2 coat protein did UUGGGUUUGCGAGGAUAUCGUAUGUGAUUUGAACGAGAAGGCGCUAUUUAAAUUAUUUUAACAUAACAUGAGGAUCACCCAUGU [JR_SSNG1_Sub021] (Eterna round: R96, puzzle: Same State NG 1) show?
output: 14.2 nM

====

System: MS2 coat protein
assay_text: apparent KD of MS2 coat protein; higher = weaker reporter binding
details: Eterna round: R107; input ligand: theophylline 20 uM
outcome_measure: apparent KD of MS2 coat protein

The following sequences have reported results that may help.
CGUAUUACGAAAGUAGUACGUAGUUCGAGUCGAGGACCGGUACGGCCGCCACUCGGACAUGAGGAUCACCCAUGUAGCGAAAGCU [Tryptophan A 23] = 0.156 µM
AACUACUCGAGGUGAUCCUACGAGUGGCAACGAGGACCGGUACGGCCGCCACUCGAAUAAACAUGAGGAUCACCCAUGUACAAAU [T''-M'-T'-T-MS2 - Design 12] = 0.259 µM
AAUAAUAAGGCGGCCGCCACUACACAUGAGGAUCACCCAUGUCUCGCGGGCUUGCGUUGGGAUUGUAGGACCGGGCCAAUAAUAA [Exclusion - Tryptophan B (Freestyle 11)] = 0.0357 µM
AUUCAUGAAAACAUGACAUGAGGAUCACUCCGAGGACCGGUACGGCCGCCACUCGCGAGGAGGCACAUGAGGAUCACCCAUGUUA [SS Tryp A #2] = 0.119 µM
GUUGAGACCUCGGCCGCCACUCGCCAUGAGGAUCUCCCAUGUAACAUGAGGAUCACCCAUGUACUGAGGACCGGGAGGUCCUAGU [Same State Tryptophan B GF 15] = 0.034 µM

Below: the item to evaluate.
input: Form field - read-out: apparent KD of MS2 coat protein; system: MS2 coat protein; submitted item: AGCACGGUGAUGGUAGCCGGACGAUAAGUACGAGGACCGGUACGGCCGCCACUCGAAGUCCUACGACAUGAGGAUCACCCAUGUA [Same State Trp A GF11]
output: 0.047 µM
